Measurement Target: human GPRC5D (human, UniProt Q9NZD1 1-345)
Sequence (Q9NZD1 whole entry): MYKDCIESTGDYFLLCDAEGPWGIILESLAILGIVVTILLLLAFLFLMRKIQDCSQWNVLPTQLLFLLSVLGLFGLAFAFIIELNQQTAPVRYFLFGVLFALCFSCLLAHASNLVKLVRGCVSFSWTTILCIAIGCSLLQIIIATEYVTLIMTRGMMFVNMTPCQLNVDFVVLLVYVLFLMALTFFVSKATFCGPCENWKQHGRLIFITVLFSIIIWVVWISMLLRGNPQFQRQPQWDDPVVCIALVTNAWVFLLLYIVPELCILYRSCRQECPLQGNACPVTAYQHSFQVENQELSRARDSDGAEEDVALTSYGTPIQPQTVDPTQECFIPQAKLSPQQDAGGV
Procedure Text: cell-based or functional assay
Reported CAR-J2 EC50 (PGLALA-CAR-J activation, L363 target cells) values follow for various binders
Report the figure in µg/mL without appending any unit label.

See these solved cases before continuing.
* P1AE5738 (antibody, V domains shown) VH: QVQLVESGGGVVQPGRSLRLSCAASGFSFSNYGMAWVRQAPGKGLEWVASISTGGGNTYYRDSVKGRFTISRDNSKNTLYLQMNSLRAEDTAVYYCTRHDRGGLYWGQGTMVTVSS VL: EIVLTQSPGTLSLSPGERATLSCRASKSLLHSNGITYVYWYQQKPGQAPRLLIYRMSNLASGIPDRFSGSGSGTDFTLTISRLEPEDFAVYHCGQLLENPYTFGQGTKLEIK | 0.397
* P1AE5762 (antibody, V domains shown) VH: EVQLVESGGGLVQPGGSLRLSCAASGFSFSNYGMAWVRQAPGKGLEWVASISTGGGNTYYADSVKGRFTISRDNAKNTLYLQMNSLRAEDTAVYYCTRHDRGGLYWGQGTMVTVSS VL: DIVMTQSPLSLPVTPGEPASISCRSSKSLLHSNGITYVYWYLQKPGQSPQLLIYRMSNRASGVPDRFSGSGSGTDFTLKISRVEAEDVGVYHCGQLLENPYTFGQGTKLEIK | 0.0842

Consider now this further binder.
The reported value for P1AE5746 (antibody, V domains shown) VH: QVQLVESGGGVVQPGRSLRLSCAASGFSFSNYGMAWVRQAPGKGLEWVASISTGGGNTYYADSVKGRFTISRDNSKNTLYLQMNSLRAEDTAVYYCTRHDRGGLYWGQGTMVTVSS VL: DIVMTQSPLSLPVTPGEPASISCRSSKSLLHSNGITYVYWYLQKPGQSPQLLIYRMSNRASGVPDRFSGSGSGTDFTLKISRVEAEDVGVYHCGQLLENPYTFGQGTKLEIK in terms of CAR-J2 EC50 (PGLALA-CAR-J activation, L363 target cells) is 0.514
